Tested on: SNB-75 CNS
runDescription: NCI tumour cell line growth inhibition, 48 h
Listing of recorded TGI by entry.
recordedEndpoint: TGI (µM)

[
  {
    "compound": "C(=N\\Nc1nnc2c(n1)[nH]c1ccccc12)/c1cccnc1",
    "qualifierSymbol": ">",
    "reported": 100
  },
  {
    "compound": "O=C1NC(=O)/C(=C/C=C/c2ccccc2)S1",
    "qualifierSymbol": "=",
    "reported": 40.3
  },
  {
    "compound": "Cc1ccc(Cl)cc1Nc1nc(C(F)(F)F)ccc1C(=O)Nc1cccc(C(F)(F)F)c1",
    "qualifierSymbol": "=",
    "reported": 12.3
  },
  {
    "compound": "COc1cc(-c2cc(-c3ccc(N(C)C)cc3)nc(N3CCOCC3)c2C#N)cc(OC)c1OC",
    "qualifierSymbol": ">",
    "reported": 76.9
  },
  {
    "compound": "COc1ccc(N2CCN(C(=O)c3ccccc3Nc3ccnc(C(F)(F)F)c3)CC2)cc1",
    "qualifierSymbol": ">",
    "reported": 100
  },
  {
    "compound": "Cc1cccc(NC(=O)C(=O)C2C(=O)NC(=O)NC2=O)c1C",
    "qualifierSymbol": ">",
    "reported": 100
  },
  {
    "compound": "C=C(C=O)C1CC(=O)C(C(=O)OC)[C@@H]2O[C@@](C)(CC2=O)C[C@@H]2OC(=O)[C@]3(O[C@@H]23)[C@@H](C(=O)OC)C1 (some centres undefined)",
    "qualifierSymbol": ">",
    "reported": 100
  },
  {
    "compound": "COc1cccc(NC(=O)CSc2nnc(-c3ccc(N=Cc4ccc(Cl)cc4)cc3)o2)c1",
    "qualifierSymbol": "=",
    "reported": 66.3
  },
  {
    "compound": "CC(=O)NC1C(CO)O[C@@H]2OC(C)(C)O[C@H]12 (some centres undefined)",
    "qualifierSymbol": ">",
    "reported": 100
  },
  {
    "compound": "O=NC1c2cccc3cccc(c23)C1N=O (centres undefined)",
    "qualifierSymbol": "=",
    "reported": 31.3
  },
  {
    "compound": "CCOC(=O)C(C)(C)Oc1ccc2c(=O)cc(-c3ccccc3)oc2c1",
    "qualifierSymbol": "=",
    "reported": 57.6
  },
  {
    "compound": "O=C(c1cc(O)ccc1O)c1ccccc1C(Cl)(Cl)Cl",
    "qualifierSymbol": ">",
    "reported": 100
  },
  {
    "compound": "COc1ccc(-c2ccc3c(NC(=O)C4CC4)n[nH]c3n2)cc1",
    "qualifierSymbol": ">",
    "reported": 17.2
  },
  {
    "compound": "COc1ccc2cccc(C(=O)c3ccc(C)c4c3CCC4)c2c1",
    "qualifierSymbol": ">",
    "reported": 100
  },
  {
    "compound": "Cc1csc2c1C(=O)c1ccsc1C2=O",
    "qualifierSymbol": "=",
    "reported": 3.51
  },
  {
    "compound": "N#CCCC1C(C#N)C2CC1C1C3C=CC(C3)C21 (centres undefined)",
    "qualifierSymbol": ">",
    "reported": 100
  },
  {
    "compound": "C#CCN1C(=O)/C(=c2\\sc3n(c2=O)C2C(NN=3)N(CC)C(=O)N2CC)c2ccccc21 (centres undefined)",
    "qualifierSymbol": "=",
    "reported": 0.997
  },
  {
    "compound": "COc1cc(C)c(C(=O)O[C@H]2[C@H](O[C@H]3[C@@H](O)COC(O[C@H]4C[C@H]5[C@@H]6CC=C7C[C@@H](O)CC[C@]7(C)[C@H]6CC[C@]5(C)[C@H]4[C@H](C)C(=O)CCC(C)C)[C@@H]3OC(C)=O)OC[C@@H](O)[C@@H]2O)c(C)c1 (some centres undefined)",
    "qualifierSymbol": "=",
    "reported": 7.71
  },
  {
    "compound": "Cc1nnc2cc(C(=O)O)c3ccccc3n2c1=O",
    "qualifierSymbol": ">",
    "reported": 10
  }
]
